Origin of measurements: the supplement of paper PMC11208160

- assay_notes: recombinant barcode read abundance after kanamycin selection (control-corrected) (log10(CPM+1)); higher = more efficient recombination; sequences stand for … in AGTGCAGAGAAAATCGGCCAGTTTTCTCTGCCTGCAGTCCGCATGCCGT…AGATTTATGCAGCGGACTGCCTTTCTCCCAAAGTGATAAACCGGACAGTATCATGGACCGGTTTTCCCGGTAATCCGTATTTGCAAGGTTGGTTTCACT; site = the 11-nt target;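 also: IS621 recombinase and bridge RNA in Escherichia coli cells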
param class (str): category from recombinant barcode read abundance (log10); see ranges bin 1 (below 0.1), bin 2 (0.1 to below 0.3), bin 3 (0.3 or more)

The following sequences have reported results that may help.
1. CCTCAGGCTTGGGTTCTAACCTGTTGCCG (site CCTCAGGCTTG)    bin 2
2. TATGCGCCTTGGGTTCTAACCTGTTGCCT (site TATGCGCCTAG)    bin 3

Which category fits this record: GACATCGCTTGGGTTCTAACCTGTTGCCT (site GACATCGCTAG) bin 3

Which category fits this record: GTAAGATCTTGGGTTCTAACCTGTTGCAC (site GTAAGATCTGT) bin 3

Which category fits this record: ACGACCGCTTGGGTTCTAACCTGTTGCCT (site ACGATCGCTAG) bin 2

Which category fits this record: GCACGGACTTGGGTTCTAACCTGTTGCAG (site GCAGGGACTCT) bin 2

Which category fits this record: CATGCCTCTTGGGTTCTAACCTGTTGCCG (site GCAAGTCCTAC) bin 2

Which category fits this record: ACTGTCACTTGGGTTCTAACCTGTTGCCT (site ACTGTGACTAG) bin 1

Which category fits this record: GACCGCGCTTGGGTTCTAACCTGTTGCCT (site GACCGTGCTAG) bin 1

Which category fits this record: ACGACTGCTTGGGTTCTAACCTGTTGCCT (site ACGACTCCTAG) bin 2

Which category fits this record: AGGCGCCCTTGGGTTCTAACCTGTTGCAA (site AGGCGCCCTGT) bin 1
